Test Target: hDAT (Homo sapiens)
Sequence (Q01959 whole entry): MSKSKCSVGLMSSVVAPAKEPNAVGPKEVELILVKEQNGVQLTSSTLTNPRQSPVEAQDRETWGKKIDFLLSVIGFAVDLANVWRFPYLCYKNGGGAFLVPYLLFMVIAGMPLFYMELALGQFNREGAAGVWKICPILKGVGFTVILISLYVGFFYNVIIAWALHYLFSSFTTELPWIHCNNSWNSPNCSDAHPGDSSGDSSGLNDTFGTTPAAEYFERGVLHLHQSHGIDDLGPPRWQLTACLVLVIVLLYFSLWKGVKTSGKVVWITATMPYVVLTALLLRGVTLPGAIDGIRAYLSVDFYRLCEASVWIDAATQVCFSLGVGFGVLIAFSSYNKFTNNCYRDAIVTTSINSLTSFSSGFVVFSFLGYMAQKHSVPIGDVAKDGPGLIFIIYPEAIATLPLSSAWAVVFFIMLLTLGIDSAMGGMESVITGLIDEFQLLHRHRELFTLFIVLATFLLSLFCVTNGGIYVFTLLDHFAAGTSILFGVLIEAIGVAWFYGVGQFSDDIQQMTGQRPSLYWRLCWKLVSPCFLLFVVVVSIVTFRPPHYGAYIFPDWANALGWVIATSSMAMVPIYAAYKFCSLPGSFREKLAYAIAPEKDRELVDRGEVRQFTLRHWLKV
Experiment: Inhibition of [3H]DA uptake by HEK-hDAT cells
Type: cell-based
Condition Set: 1/(DAT IC50) divided by 1/(SERT IC50), uptake; higher = more DAT selective
Record yes (1) whenever Ratio DAT/SERT is at 9 or higher; record no (0) when lower.

{"columns": ["Compound", "Assigned Class"],
 "data": [
  ["CNC(C)C(=O)c1cccc(C)c1 (stereo not shown) [3-MMC, 3-methylmethcathinone]", "yes (1)"],
  ["CCCC(C(=O)c1ccc2c(c1)OCO2)N(C)C (stereo not shown) [bk-DMBDP, N,N-dimethylpentylone]", "yes (1)"],
  ["CCCC(C(=O)c1ccc(F)cc1)N1CCCC1 (stereo not drawn) [4-F-α-PVP, 4-fluoro-α–pyrrolidinopentiophenone]", "yes (1)"],
  ["CCCNC(C)C(=O)c1ccc2c(c1)OCO2 (stereo not shown) [PRONE, 3,4-methylenedioxy-N-propylcathinone]", "no (0)"],
  ["CCCCC(NCC)C(=O)c1ccccc1 (stereo not drawn) [N-Et-Hexedrone, α-ethylaminohexanophenone]", "yes (1)"],
  ["CCCC(NCC)C(=O)c1ccc2c(c1)OCO2 (stereo not shown) [N-Et pentylone, N-ethyl pentylone]", "no (0)"],
  ["CCNC(C)Cc1ccc2ccoc2c1 (stereo not drawn) [6-EAPB, N-ethyl-α-methyl-6-benzofuranethanamine]", "no (0)"],
  ["CCCC(NC)C(=O)c1ccc(Cl)cc1 (stereo not shown) [4-CPD, 4-chloro pentedrone]", "no (0)"],
  ["CCC(C(=O)c1ccc2c(c1)OCO2)N(C)C (stereo not shown) [Dibutylone, bk-DMBDB]", "yes (1)"],
  ["CCCC(NCC)C(=O)c1ccccc1 (stereo not drawn) [α-EPP, α-ethylaminopentiophenone]", "yes (1)"],
  ["CNC(C)Cc1ccc2ccoc2c1 (stereo not drawn) [6-MAPB, N,α-dimethyl-6-benzofuranethanamine]", "yes (1)"],
  ["CCCCC(C(=O)c1ccc2c(c1)OCO2)N1CCCC1 (stereo not shown) [3,4-MDPHP]", "yes (1)"],
  ["CNC(C)C(=O)c1ccccc1 (stereo not shown) [MCAT, methcathinone, reference compound]", "yes (1)"],
  ["CC(N)Cc1ccc2ccoc2c1 (stereo not drawn) [6-APB, α-methyl-6-benzofuranethanamine]", "no (0)"],
  ["CCCC(NCC)C(=O)c1ccc(C)cc1 (stereo not drawn) [4-MEAP, 4-methyl-α-ethylaminopentiophenone]", "no (0)"],
  ["CCCC(C(=O)c1ccc2c(c1)CCCC2)N1CCCC1 (stereo not shown) [TH-PVP]", "no (0)"],
  ["CNC(C)Cc1ccc2c(c1)CCO2 (stereo not shown) [5-MAPDB]", "no (0)"],
  ["CN[C@@H](C)Cc1ccccc1 [METH, methamphetamine, reference compound]", "yes (1)"],
  ["CCCCC(C(=O)c1ccc(F)cc1)N1CCCC1 (stereo not drawn) [4-F-α-PHP, 4’-fluoro-α–pyrrolidinohexanophenone]", "yes (1)"],
  ["CCCC(Cc1ccccc1)N1CCCC1 (stereo not shown) [Prolintane, 1-[1-(phenylmethyl)butyl]-pyrrolidine]", "yes (1)"],
  ["CNC(C)Cc1ccc2occc2c1 (stereo not drawn) [5-MAPB, N,α-dimethyl-5-benzofuranethanamine]", "no (0)"],
  ["CCNC(C)C(=O)c1ccc(Cl)cc1 (stereo not shown) [4-CEC, 4-Cl-ethcathinone]", "no (0)"],
  ["CCCNC(CCC)C(=O)c1ccccc1 (stereo not drawn) [N-propyl pentedrone, α-propylaminopentiophenone]", "yes (1)"],
  ["CCCCCCC(C(=O)c1ccccc1)N1CCCC1 (stereo not shown) [PV9, 1-phenyl-2-(pyrrolidin-1-yl)octan-1-one]", "yes (1)"],
  ["CCCCC(C(=O)c1ccc(C)cc1)N1CCCC1 (stereo not drawn) [4-Me-α-PHP, 4’-methyl-α–pyrrolidinohexanophenone]", "yes (1)"],
  ["CNC(COC)C(=O)c1ccc(C)cc1 (stereo not shown) [Mexedrone]", "no (0)"],
  ["CCCC(C(=O)c1ccc(Cl)cc1)N1CCCC1 (stereo not drawn) [4-Cl-α-PVP, 4’-chloro-α–pyrrolidinopentiophenone]", "yes (1)"],
  ["CNC(C)Cc1cc2ccccc2o1 (stereo not drawn) [2-MAPB, N,α-dimethyl-2-benzofuranethanamine]", "no (0)"],
  ["CNC(C)Cc1ccc2c(c1)OCO2 (stereo not shown) [MDMA, reference compound]", "no (0)"]
]}
